System: Alopecurus myosuroides (ALOMY)
Assay: Post-emergence herbicidal activity, glasshouse pot test
Type: in vivo
Settings: Alopecurus myosuroides, 312 h, rate 250 g/ha, evaluated after 13 days, glasshouse, read-out: Post-emergence activity ALOMY (100=total damage to plant; 0=no damage to plant)
# pest or weed control at 250 g/ha >= 80% gives Met, anything below gives Not met

sample_smiles=CCc1ccc(Oc2ncc(Cl)cn2)cc1C1=C(O)CC(C)(C)CC1=O classification=Met
sample_smiles=CCc1ccc(Oc2ccc(Cl)cc2Cl)cc1C1=C(O)CCC(C)(C)C1=O classification="Not met"
sample_smiles=CCc1ccc(Oc2ccc(F)cc2F)cc1C1=C(O)CC(C)(C)CC1=O classification="Not met"
sample_smiles=CCc1ccc(Oc2ccc(C(F)(F)F)c(C#N)c2)cc1C1=C(O)CC2(CCOCC2)CC1=O classification=Met
sample_smiles=CCc1ccc(Oc2cc(C(F)(F)F)ccn2)cc1C1=C(O)C(C)(C)OC(C)(C)C1=O classification="Not met"
sample_smiles=CCc1ccc(Oc2ncc(Cl)cc2Cl)cc1C1=C(O)[C@H]2CC[C@H](C2)C1=O classification=Met
sample_smiles=CCc1ccc(Oc2nc3ccc([N+](=O)[O-])cc3s2)cc1C1=C(O)[C@@H]2CC[C@](C)(C1=O)C2(C)C classification="Not met"
sample_smiles=CCc1ccc(Oc2cc(C)c(Cl)nn2)cc1C1=C(O)C(C)(C)OC(C)(C)C1=O classification="Not met"
sample_smiles=CCc1ccc(Oc2ccc(C(F)(F)F)cn2)cc1C1=C(O)C(C)(C)OC(C)(C)C1=O classification=Met
sample_smiles=CCc1ccc(Oc2nc3cc4c(cc3s2)OCCO4)cc1C1=C(O)C(C)(C)OC(C)(C)C1=O classification="Not met"
sample_smiles=CCc1ccc(Oc2ccc(Cl)c(F)c2)cc1C1=C(O)[C@H]2CC[C@H](C2)C1=O classification=Met
sample_smiles=CCc1ccc(Oc2ccc3cc(Br)ccc3n2)cc1C1=C(O)C(C)(C)OC(C)(C)C1=O classification=Met
sample_smiles=CCc1ccc(Oc2nc(F)c(Cl)cc2Cl)cc1C1=C(O)C(C)(C)OC(C)(C)C1=O classification="Not met"

* * *

Tested on: Alopecurus myosuroides (ALOMY)
Experiment: Post-emergence herbicidal activity, glasshouse pot test
Type: in vivo
Settings: Alopecurus myosuroides, 312 h, rate 250 g/ha, evaluated after 13 days, glasshouse, read-out: Post-emergence activity ALOMY (100=total damage to plant; 0=no damage to plant)
pest or weed control at 250 g/ha: recorded values
Endpoint label: pest or weed control at 250 g/ha (%)

sample_smiles=CCc1ccc(Oc2ccc(Cl)cc2F)cc1C1=C(O)CCC(C)(C)C1=O experimental_value=20
sample_smiles=CCc1ccc(Oc2ccc(Cl)c(F)c2)cc1C1=C(O)C(C)(C)OC(C)(C)C1=O experimental_value=90
sample_smiles=CCc1ccc(Oc2ccc(C(F)(F)F)cc2[N+](=O)[O-])cc1C1=C(O)C(C)(C)OC(C)(C)C1=O experimental_value=90
sample_smiles=CCCc1cnc(Oc2ccc(CC)c(C3=C(O)C(C)(C)OC(C)(C)C3=O)c2)nc1 experimental_value=50
sample_smiles=CCc1ccc(Oc2nc3ccc(OC)cc3s2)cc1C1=C(O)[C@@H]2CC[C@](C)(C1=O)C2(C)C experimental_value=30
sample_smiles=CCc1ccc(Oc2ccc(C(F)(F)F)cc2Cl)cc1C1=C(O)[C@@H]2CC[C@](C)(C1=O)C2(C)C experimental_value=40
sample_smiles=CCc1ccc(Oc2nc(OC)cc(OC)n2)cc1C1=C(O)C(C)(C)OC(C)(C)C1=O experimental_value=0
sample_smiles=CCc1ccc(Oc2ccc(Cl)cn2)cc1C1=C(O)C(C)(C)OC(C)(C)C1=O experimental_value=80

Sourced from patent US8865623B2
